- procedure text: in vivo
- Design: species or system white New Zealand rabbits
- run parameters: rabbit, topical or ocular, Ct (tissue concentration of azithromycin)
assay endpoint: concentration at 6 h

Lookup result for "CC[C@H]1OC(=O)[C@H](C)[C@@H](O[C@H]2C[C@@](C)(OC)[C@@H](O)[C@H](C)O2)[C@H](C)[C@@H](O[C@@H]2O[C@H](C)C[C@H](N(C)C)[C@H]2O)[C@](C)(O)C[C@@H](C)CN(C)[C@H](C)[C@@H](O)[C@]1(C)O" ; measured concentration at 6 h: < 200000 ng/g

* * *

- procedure text: in vivo
- Design: species or system white New Zealand rabbits
- run parameters: rabbit, topical or ocular, Ct (tissue concentration of azithromycin), Average
assay endpoint: concentration at 24 h (ng/g)
Number in ng/g, nothing else.

// field: concentration at 24 h; key: "CC[C@H]1OC(=O)[C@H](C)[C@@H](O[C@H]2C[C@@](C)(OC)[C@@H](O)[C@H](C)O2)[C@H](C)[C@@H](O[C@@H]2O[C@H](C)C[C@H](N(C)C)[C@H]2O)[C@](C)(O)C[C@@H](C)CN(C)[C@H](C)[C@@H](O)[C@]1(C)O" ; value = 420000
